# System: Staphylococcus lugdunensis
# experiment.description: Antibacterial activity against Staphylococcus lugdunensis assessed as percent susceptible isolates by CLSI M100-S18 method
# Type: functional

[
  {
    "molecule": "C[C@H]1COc2c(N3CCN(C)CC3)c(F)cc3c(=O)c(C(=O)O)cn1c23.C[C@H]1COc2c(N3CCN(C)CC3)c(F)cc3c(=O)c(C(=O)O)cn1c23.O",
    "Activity": "66.7%"
  },
  {
    "molecule": "COc1c(N2CCNC(C)C2)c(F)cc2c(=O)c(C(=O)O)cn(C3CC3)c12 (stereo unspecified)",
    "Activity": "60%"
  },
  {
    "molecule": "CC[C@H]1OC(=O)[C@H](C)[C@@H](O[C@H]2C[C@@](C)(OC)[C@@H](O)[C@H](C)O2)[C@H](C)[C@@H](O[C@@H]2O[C@H](C)C[C@H](N(C)C)[C@H]2O)[C@](C)(O)C[C@@H](C)CN(C)[C@H](C)[C@@H](O)[C@]1(C)O",
    "Activity": "66.7%"
  },
  {
    "molecule": "Cc1onc(-c2ccccc2)c1C(=O)N[C@@H]1C(=O)N2[C@@H]1SC(C)(C)[C@@H]2C(=O)O",
    "Activity": "60%"
  },
  {
    "molecule": "NC[C@H]1O[C@H](O[C@H]2[C@H](O)[C@@H](O[C@H]3O[C@H](CO)[C@@H](O)[C@H](N)[C@H]3O)[C@H](N)C[C@@H]2N)[C@H](N)C[C@@H]1O",
    "Activity": "46.7%"
  }
]

----------
# System: Prevotella sp.
# experiment.description: Antibacterial activity against Prevotella sp. by CLSI M11-A7 method
# Assay type: functional

[
  {
    "compound": "N[C@@H]1CCCCN(c2c(F)cc3c(=O)c(C(=O)O)cn(C4CC4)c3c2Cl)C1",
    "comparison.symbol": "=",
    "MIC90 (µg/mL)": 4
  },
  {
    "compound": "Cc1ncc([N+](=O)[O-])n1CCO",
    "comparison.symbol": "=",
    "MIC90 (µg/mL)": 4
  },
  {
    "compound": "CCC[C@@H]1C[C@@H](C(=O)N[C@@H]([C@H]2O[C@H](SC)[C@H](O)[C@@H](O)[C@H]2O)[C@H](C)Cl)N(C)C1",
    "comparison.symbol": ">",
    "MIC90 (µg/mL)": 8
  },
  {
    "compound": "COc1c(N2CCNC(C)C2)c(F)cc2c(=O)c(C(=O)O)cn(C3CC3)c12 (centres undefined)",
    "comparison.symbol": "=",
    "MIC90 (µg/mL)": 16
  }
]

----------
Attribute: MIC90
# Tested on: Acinetobacter baumannii
# experiment.description: Antibacterial activity against Acinetobacter baumannii by CLSI M7-A7 method
# Format: functional
recorded.metric: MIC90

[
  {
    "molecule": "C[C@@H](O)[C@H]1C(=O)N2C(C(=O)O)=C(SCCNC=N)C[C@H]12 [IMIPENEM ANHYDROUS]",
    "assayed.target": "Acinetobacter baumannii",
    "value.reported": "> 8 µg/mL"
  },
  {
    "molecule": "CC(C)(O/N=C(\\C(=O)N[C@@H]1C(=O)N2C(C(=O)[O-])=C(C[n+]3ccccc3)CS[C@H]12)c1csc(N)n1)C(=O)O [CEFTAZIDIME]",
    "assayed.target": "Acinetobacter baumannii",
    "value.reported": "> 16 µg/mL"
  },
  {
    "molecule": "NC[C@H]1O[C@H](O[C@H]2[C@H](O)[C@@H](O[C@H]3O[C@H](CO)[C@@H](O)[C@H](N)[C@H]3O)[C@H](N)C[C@@H]2N)[C@H](N)C[C@@H]1O [TOBRAMYCIN]",
    "assayed.target": "Acinetobacter baumannii",
    "value.reported": "> 64 µg/mL"
  },
  {
    "molecule": "N[C@@H]1CCCCN(c2c(F)cc3c(=O)c(C(=O)O)cn(C4CC4)c3c2Cl)C1 [BESIFLOXACIN]",
    "assayed.target": "Acinetobacter baumannii",
    "value.reported": "32 µg/mL"
  },
  {
    "molecule": "C[C@H]1COc2c(N3CCN(C)CC3)c(F)cc3c(=O)c(C(=O)O)cn1c23.C[C@H]1COc2c(N3CCN(C)CC3)c(F)cc3c(=O)c(C(=O)O)cn1c23.O [LEVOFLOXACIN]",
    "assayed.target": "Acinetobacter baumannii",
    "value.reported": "64 µg/mL"
  }
]

----------
# System: Peptostreptococcus sp.
# experiment.description: Antibacterial activity against Peptostreptococcus sp. assessed as percent susceptible isolates by CLSI M11-A7 method
# Format: functional
Calls of active or inactive are those of the source. The rule behind the calls is not given here.
recorded.metric: Activity

[
  {
    "compound": "N[C@@H]1CCCCN(c2c(F)cc3c(=O)c(C(=O)O)cn(C4CC4)c3c2Cl)C1 [BESIFLOXACIN]",
    "assayed.target": "Peptostreptococcus sp.",
    "value.reported": "inactive"
  },
  {
    "compound": "Cc1ncc([N+](=O)[O-])n1CCO [METRONIDAZOLE]",
    "assayed.target": "Peptostreptococcus sp.",
    "value.reported": "98.1%"
  },
  {
    "compound": "COc1c(N2CCNC(C)C2)c(F)cc2c(=O)c(C(=O)O)cn(C3CC3)c12 (centres undefined) [GATIFLOXACIN]",
    "assayed.target": "Peptostreptococcus sp.",
    "value.reported": "inactive"
  },
  {
    "compound": "CCC[C@@H]1C[C@@H](C(=O)N[C@@H]([C@H]2O[C@H](SC)[C@H](O)[C@@H](O)[C@H]2O)[C@H](C)Cl)N(C)C1 [CLINDAMYCIN]",
    "assayed.target": "Peptostreptococcus sp.",
    "value.reported": "88.5%"
  }
]

----------
# System: Streptococcus equinus
# experiment.description: Antibacterial activity against Streptococcus bovis by CLSI M100-S18 method
# Type: functional
recorded.metric: MIC50 (µg/mL)

[
  {
    "compound": "C[C@H]1COc2c(N3CCN(C)CC3)c(F)cc3c(=O)c(C(=O)O)cn1c23.C[C@H]1COc2c(N3CCN(C)CC3)c(F)cc3c(=O)c(C(=O)O)cn1c23.O",
    "recorded.metric": "MIC50",
    "value.reported": 1
  },
  {
    "compound": "CC[C@H]1OC(=O)[C@H](C)[C@@H](O[C@H]2C[C@@](C)(OC)[C@@H](O)[C@H](C)O2)[C@H](C)[C@@H](O[C@@H]2O[C@H](C)C[C@H](N(C)C)[C@H]2O)[C@](C)(O)C[C@@H](C)CN(C)[C@H](C)[C@@H](O)[C@]1(C)O",
    "recorded.metric": "MIC50",
    "value.reported": 1
  },
  {
    "compound": "N[C@@H]1CCCCN(c2c(F)cc3c(=O)c(C(=O)O)cn(C4CC4)c3c2Cl)C1",
    "recorded.metric": "MIC50",
    "value.reported": 0.06
  },
  {
    "compound": "COc1c(N2CCNC(C)C2)c(F)cc2c(=O)c(C(=O)O)cn(C3CC3)c12 (stereo unspecified)",
    "recorded.metric": "MIC50",
    "value.reported": 0.06
  },
  {
    "compound": "CC1(C)S[C@@H]2[C@H](NC(=O)Cc3ccccc3)C(=O)N2[C@H]1C(=O)O",
    "recorded.metric": "MIC50",
    "value.reported": 16
  },
  {
    "compound": "NC[C@H]1O[C@H](O[C@H]2[C@H](O)[C@@H](O[C@H]3O[C@H](CO)[C@@H](O)[C@H](N)[C@H]3O)[C@H](N)C[C@@H]2N)[C@H](N)C[C@@H]1O",
    "recorded.metric": "MIC50",
    "value.reported": 0.06
  }
]

----------
The following molecules are listed with their measured MIC50 values.
# System: Staphylococcus hominis
# experiment.description: Antibacterial activity against Staphylococcus hominis by CLSI M100-S18 method
# Format: functional

[
  {
    "molecule": "CC[C@H]1OC(=O)[C@H](C)[C@@H](O[C@H]2C[C@@](C)(OC)[C@@H](O)[C@H](C)O2)[C@H](C)[C@@H](O[C@@H]2O[C@H](C)C[C@H](N(C)C)[C@H]2O)[C@](C)(O)C[C@@H](C)CN(C)[C@H](C)[C@@H](O)[C@]1(C)O",
    "MIC50": "> 8 µg/mL"
  },
  {
    "molecule": "NC[C@H]1O[C@H](O[C@H]2[C@H](O)[C@@H](O[C@H]3O[C@H](CO)[C@@H](O)[C@H](N)[C@H]3O)[C@H](N)C[C@@H]2N)[C@H](N)C[C@@H]1O",
    "MIC50": "16 µg/mL"
  },
  {
    "molecule": "N[C@@H]1CCCCN(c2c(F)cc3c(=O)c(C(=O)O)cn(C4CC4)c3c2Cl)C1",
    "MIC50": "0.25 µg/mL"
  },
  {
    "molecule": "C[C@H]1COc2c(N3CCN(C)CC3)c(F)cc3c(=O)c(C(=O)O)cn1c23.C[C@H]1COc2c(N3CCN(C)CC3)c(F)cc3c(=O)c(C(=O)O)cn1c23.O",
    "MIC50": "8 µg/mL"
  },
  {
    "molecule": "COc1c(N2CCNC(C)C2)c(F)cc2c(=O)c(C(=O)O)cn(C3CC3)c12 (stereo unspecified)",
    "MIC50": "1 µg/mL"
  },
  {
    "molecule": "Cc1onc(-c2ccccc2)c1C(=O)N[C@@H]1C(=O)N2[C@@H]1SC(C)(C)[C@@H]2C(=O)O",
    "MIC50": "> 8 µg/mL"
  }
]
